Tested on: pigweed (Amaranthus retroflexus)
PROTOCOL DETAILS: Test C preemergence, visual plant response rating
Assay type: in vivo
TEST PARAMETERS: Test C, 31 g ai/ha, 0 is no effect, 100 is complete control
The threshold is 10. Values of Pigweed plant response rating (0 to 100 scale) beneath it are tagged YES; values meeting or exceeding it are tagged NO.

For orientation, consider the following solved cases.
Dear reviewer, please state whether CON=C(c1cccc(OC)c1)c1c(O)c(C)nn(C)c1=O has Pigweed plant response rating (0 to 100 scale) strictly beneath 10.
YES

Dear reviewer, please state whether CO/N=C(/c1c(O)c(C)nn(C)c1=O)c1cccc2cc(Cl)ccc12 has Pigweed plant response rating (0 to 100 scale) strictly beneath 10.
YES

Dear reviewer, please state whether CO/N=C(\c1ccc(F)c(Cl)c1)c1c(O)c(C)nn(C)c1=O has Pigweed plant response rating (0 to 100 scale) strictly beneath 10.
YES

Dear reviewer, please state whether Cc1nn(C)c(=O)c(C(=NOC(C)C)c2cc(Cl)cc(Cl)c2Cl)c1O has Pigweed plant response rating (0 to 100 scale) strictly beneath 10.
NO

More entries:
Dear reviewer, please state whether CON=C(c1cc(F)cc(F)c1F)c1c(O)c(C)nn(C)c1=O has Pigweed plant response rating (0 to 100 scale) strictly beneath 10.
NO

Dear reviewer, please state whether CON=C(c1cc(Cl)cc(Cl)c1Cl)c1c(O)c(C)nn(C)c1=O has Pigweed plant response rating (0 to 100 scale) strictly beneath 10.
NO

Dear reviewer, please state whether C#CCO/N=C(\c1ccc(F)c(Br)c1)c1c(O)c(C)nn(C)c1=O has Pigweed plant response rating (0 to 100 scale) strictly beneath 10.
NO

Dear reviewer, please state whether C#CCO/N=C(\c1cc(C)cc(Cl)c1)c1c(O)c(C)nn(C)c1=O has Pigweed plant response rating (0 to 100 scale) strictly beneath 10.
NO

Dear reviewer, please state whether C#CCO/N=C(\c1ccc(Cl)c(Cl)c1)c1c(O)c(C)nn(C)c1=O has Pigweed plant response rating (0 to 100 scale) strictly beneath 10.
YES

Dear reviewer, please state whether CCON=C(c1cc(Cl)cc(Br)c1)c1c(O)c(C)nn(C)c1=O [Compound 180] has Pigweed plant response rating (0 to 100 scale) strictly beneath 10.
NO

Dear reviewer, please state whether CON=C(c1cc(Cl)cc(OC)c1)c1c(O)c(C)nn(C)c1=O has Pigweed plant response rating (0 to 100 scale) strictly beneath 10.
YES

Dear reviewer, please state whether C#CCO/N=C(/c1ccc(F)c(Br)c1)c1c(O)c(C)nn(C)c1=O has Pigweed plant response rating (0 to 100 scale) strictly beneath 10.
NO

Dear reviewer, please state whether CO/N=C(/c1cc(C)cc(Cl)c1)c1c(O)c(C)nn(C)c1=O has Pigweed plant response rating (0 to 100 scale) strictly beneath 10.
NO

###

The following molecules are shown together with reported Wheat plant response rating (0 to 100 scale) values.
Test system: wheat (Triticum aestivum)
PROTOCOL DETAILS: Test A postemergence, visual plant response rating
Assay type: in vivo
TEST PARAMETERS: 500 g ai/ha, postemergence; 0 is no effect, 100 is complete control
Number only, please.

Quick one: give measured Wheat plant response rating (0 to 100 scale) for C#CCO/N=C(/c1c(O)c(C)nn(C)c1=O)c1cccc2ccccc12
80

Quick one: give measured Wheat plant response rating (0 to 100 scale) for C=CCO/N=C(/c1c(O)c(C)nn(C)c1=O)c1ccc(F)c2ccccc12
60

Quick one: give measured Wheat plant response rating (0 to 100 scale) for CO/N=C(\c1cscc1C)c1c(O)c(C)nn(C)c1=O
0

Quick one: give measured Wheat plant response rating (0 to 100 scale) for CON=C(c1cccc(C2CC2)c1)c1c(O)c(C)nn(C)c1=O
10

Quick one: give measured Wheat plant response rating (0 to 100 scale) for CCO/N=C(\c1ccccc1C)c1c(O)c(C)nn(C)c1=O
0

More entries:
Quick one: give measured Wheat plant response rating (0 to 100 scale) for CCCO/N=C(/c1c(O)c(C)nn(C)c1=O)c1cccc2ccccc12
0

###

Test system: kochia (Kochia scoparia)
PROTOCOL DETAILS: Test A preemergence, visual plant response rating
Type: in vivo
TEST PARAMETERS: 500 g ai/ha Preemergence; approx. 10 days
The threshold is 30. Values of Kochia plant response rating (0 to 100 scale) beneath it are tagged Condition met; values meeting or exceeding it are tagged Condition not met.

Dear reviewer, please state whether CCCc1ccccc1/C(=N\OC)c1c(O)c(C)nn(C)c1=O has Kochia plant response rating (0 to 100 scale) strictly beneath 30.
Condition met

Dear reviewer, please state whether CON=C(c1cc(Cl)ccc1Cl)c1c(O)c(C)nn(C)c1=O [Compound 98] has Kochia plant response rating (0 to 100 scale) strictly beneath 30.
Condition not met

Dear reviewer, please state whether C#CCO/N=C(/c1c(O)c(C)nn(C)c1=O)c1cc(Br)cc2ccccc12 has Kochia plant response rating (0 to 100 scale) strictly beneath 30.
Condition not met

Dear reviewer, please state whether C#CCO/N=C(\c1c(O)c(C)nn(C)c1=O)c1cccc2ccccc12 has Kochia plant response rating (0 to 100 scale) strictly beneath 30.
Condition not met

Dear reviewer, please state whether CCO/N=C(/c1c(O)c(C)nn(C)c1=O)c1ccc(F)c2ccccc12 has Kochia plant response rating (0 to 100 scale) strictly beneath 30.
Condition not met

Okay, next one:
Dear reviewer, please state whether CO/N=C(/c1c(O)c(C)nn(C)c1=O)c1ccc(OC)c2ccccc12 has Kochia plant response rating (0 to 100 scale) strictly beneath 30.
Condition met

###

System: corn (Zea mays)
PROTOCOL DETAILS: Test C postemergence, visual plant response rating
Format: in vivo
TEST PARAMETERS: Test C, postemergence, 125 g ai/ha
The following molecules are shown together with reported Corn plant response rating (0 to 100 scale) values.
Number only, please.

Worked examples follow.
Quick one: give measured Corn plant response rating (0 to 100 scale) for CO/N=C(\c1c(O)c(Cl)nn(C)c1=O)c1ccc(F)c2ccccc12
10

Quick one: give measured Corn plant response rating (0 to 100 scale) for C#CCON=C(c1ccc(Cl)c(Cl)c1)c1c(O)c(C)nn(C)c1=O
10

Kindly consider the entry below.
Quick one: give measured Corn plant response rating (0 to 100 scale) for Cc1nn(C)c(=O)c(C(=NOCC2CC2)c2cc(Cl)cc(Cl)c2Cl)c1O [Compound 293]
10

###

Tested on: Italian ryegrass (Lolium mutiflorum)
PROTOCOL DETAILS: Test C postemergence, visual plant response rating
Format: in vivo
TEST PARAMETERS: Postemergence, 31 g ai/ha
PARAMETER MEASURED: Ryegrass, Italian plant response rating (0 to 100 scale)
Number only, please.

Worked examples follow.
Quick one: give measured Ryegrass, Italian plant response rating (0 to 100 scale) for CO/N=C(\c1cc(F)cc(C)c1F)c1c(O)c(C)nn(C)c1=O
40

Quick one: give measured Ryegrass, Italian plant response rating (0 to 100 scale) for CON=C(c1cc(F)cc(F)c1F)c1c(O)c(C)nn(C)c1=O
20

Quick one: give measured Ryegrass, Italian plant response rating (0 to 100 scale) for CO/N=C(/c1cc(F)cc(F)c1C)c1c(O)c(C)nn(C)c1=O
10

Quick one: give measured Ryegrass, Italian plant response rating (0 to 100 scale) for CO/N=C(\c1cccc(Br)c1)c1c(O)c(C)nn(C)c1=O
50

Quick one: give measured Ryegrass, Italian plant response rating (0 to 100 scale) for CO/N=C(\c1c(O)c(C)nn(C)c1=O)c1cccc2cc(Cl)ccc12
10

Quick one: give measured Ryegrass, Italian plant response rating (0 to 100 scale) for CCO/N=C(\c1cc(Cl)cc(Cl)c1Cl)c1c(O)c(C)nn(C)c1=O
80

More entries:
Quick one: give measured Ryegrass, Italian plant response rating (0 to 100 scale) for C#CCO/N=C(/c1c(O)c(C)nn(C)c1=O)c1cc(Cl)cc2ccccc12
20

Quick one: give measured Ryegrass, Italian plant response rating (0 to 100 scale) for Cc1nn(C)c(=O)c(/C(=N\OC(C)C)c2cccc3cc(Cl)ccc23)c1O
0

Quick one: give measured Ryegrass, Italian plant response rating (0 to 100 scale) for CO/N=C(\c1c(OC(C)=O)c(Cl)nn(C)c1=O)c1cc(Br)cc2ccccc12
0

###

The following compounds are shown together with reported Ryegrass, Italian plant response rating (0 to 100 scale) values.
System: Italian ryegrass (Lolium multiflorum)
PROTOCOL DETAILS: Test A preemergence, visual plant response rating
Type: in vivo
TEST PARAMETERS: 500 g ai/ha Preemergence; approx. 10 days
Number only, please.

Write down measured Ryegrass, Italian plant response rating (0 to 100 scale) (Italian ryegrass (Lolium multiflorum)) for this compound. CCO/N=C(/c1cccc(C)c1C)c1c(O)c(C)nn(C)c1=O [Compound 24]
50

Write down measured Ryegrass, Italian plant response rating (0 to 100 scale) (Italian ryegrass (Lolium multiflorum)) for this compound. CCO/N=C(/c1c(O)c(C)nn(C)c1=O)c1cccc2ccccc12 [Compound 78]
50

More entries:
Write down measured Ryegrass, Italian plant response rating (0 to 100 scale) (Italian ryegrass (Lolium multiflorum)) for this compound. CCc1cccc(C(=NOC)c2c(O)c(C)nn(C)c2=O)c1 [Compound 36]
50

The reported measurements were obtained from patent US20210045385A1.
